Sourced from PubChem BioAssay (NCI)

- System: OVCAR-8 ovarian
- protocol-details: NCI tumour cell line growth inhibition, 48 h
measure-name: GI50

CC(=O)OC1=C2C(CC3C4CC=C5CC(OC(C)=O)CCC5(C)C4CCC23C)C2C(=O)N(Cc3ccccc3)C(=O)C2C1 (stereo not drawn)    6.9 µM
Cc1[nH]nc(C(=O)Nc2n[nH]c3ccccc23)c1[N+](=O)[O-]    > 100 µM

Then this molecule:
Data request: Determine from records and report GI50 for CN1c2ccccc2C(C)(C)C12CC(c1ccc(Cl)c(S(=O)(=O)N3CCCC3)c1)=NO2 (stereo not drawn)
Data returned: > 100 µM

* * *

- Tested on: LOX IMVI melanoma
- protocol-details: NCI tumour cell line growth inhibition, 48 h
measure-name: TGI

// known answers, use as guide
Cc1nn(C)c(=O)c2nn(-c3ccccc3)c(C)c12    > 100 µM
O=C(c1ccccc1)n1[nH]c(=O)n(-c2ccc(Cl)cc2)c1=O    > 100 µM
COc1ccc(/C=C/C(c2cc(OC)c(OC)c(OC)c2)n2cncn2)cc1O (centres undefined)    > 100 µM

Data request: Determine from records and report TGI for `COC(=O)c1ccccc1N=Cc1ccc(N(CCC#N)S(=O)(=O)c2ccccc2)cc1`
Data returned: > 100 µM
